targetUnderTest: T1, hCMV gH + gL + UL128 + UL130 + UL131A (5-member complex; HEK293T co-transfectant) (hCMV, UniProt P12824 24-743; P16832 31-278; P16837 1-171; P16772 1-214)
T1 construct: whole, on cells; in the functional rows it stands for the complex on virions or transduced cells of the strain or isolate named in the readout; also called gH/gL/UL128-131A complex; pentameric complex
experimentNotes: cell competition; competitor 5A2-biotin
# Inhibition of binding (%) annotations
Please reply with the bare figure in % and do not write the unit itself.

Below are worked cases with known answers.
| binder | Inhibition of binding (%) |
| --- | --- |
| 4I22 (antibody, human IgG1, V domains shown, fully human IgG1 with unaltered Fc; also called 4I22-biotin; 4122) VH: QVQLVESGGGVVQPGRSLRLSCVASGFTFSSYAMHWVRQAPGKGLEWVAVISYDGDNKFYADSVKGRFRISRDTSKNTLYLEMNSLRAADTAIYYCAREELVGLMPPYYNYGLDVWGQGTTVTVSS VL: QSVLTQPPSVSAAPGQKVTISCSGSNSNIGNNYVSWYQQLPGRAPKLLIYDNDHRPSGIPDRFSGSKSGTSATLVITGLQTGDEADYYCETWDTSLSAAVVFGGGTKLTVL | 0 |
| 10F7 (antibody, V domains shown, human IgG; also called 10F7-biotin) VH: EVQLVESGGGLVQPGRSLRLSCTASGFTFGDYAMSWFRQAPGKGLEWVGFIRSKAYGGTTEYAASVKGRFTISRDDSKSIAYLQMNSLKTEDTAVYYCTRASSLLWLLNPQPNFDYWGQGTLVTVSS VL: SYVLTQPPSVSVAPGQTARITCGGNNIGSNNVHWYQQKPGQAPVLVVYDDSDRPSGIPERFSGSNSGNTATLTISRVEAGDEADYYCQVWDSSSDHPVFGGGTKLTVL | 0 |

Item under review: 2C12 (antibody, V domains shown, human IgG; also called 2C12-biotin) VH: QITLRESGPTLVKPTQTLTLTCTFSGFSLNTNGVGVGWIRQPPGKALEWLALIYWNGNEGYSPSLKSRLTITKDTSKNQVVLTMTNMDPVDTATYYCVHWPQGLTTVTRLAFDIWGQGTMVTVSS VL: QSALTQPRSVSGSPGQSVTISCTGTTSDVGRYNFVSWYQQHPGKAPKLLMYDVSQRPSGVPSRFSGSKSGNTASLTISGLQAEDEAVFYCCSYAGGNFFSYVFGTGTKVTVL . Reported Inhibition of binding (%)?
0

Item under review: 15D8 (antibody, V domains shown, human IgG; also called 15D8-biotin) VH: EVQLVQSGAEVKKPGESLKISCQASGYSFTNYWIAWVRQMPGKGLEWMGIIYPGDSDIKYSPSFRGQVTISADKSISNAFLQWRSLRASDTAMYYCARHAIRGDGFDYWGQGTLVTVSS VL: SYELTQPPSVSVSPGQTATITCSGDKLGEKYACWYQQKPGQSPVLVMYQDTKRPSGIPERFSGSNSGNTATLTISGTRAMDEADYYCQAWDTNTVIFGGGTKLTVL . Reported Inhibition of binding (%)?
0

Item under review: 4N10 (antibody, V domains shown, human IgG; also called 4N10-biotin) VH: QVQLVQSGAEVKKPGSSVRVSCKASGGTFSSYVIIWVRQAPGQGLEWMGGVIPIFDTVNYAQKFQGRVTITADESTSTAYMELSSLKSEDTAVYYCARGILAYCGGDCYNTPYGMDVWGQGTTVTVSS VL: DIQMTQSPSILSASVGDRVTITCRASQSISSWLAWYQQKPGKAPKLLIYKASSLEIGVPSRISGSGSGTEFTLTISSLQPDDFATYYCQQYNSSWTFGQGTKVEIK . Reported Inhibition of binding (%)?
100

Data provenance: patent US20170296650A1
